// provenance: PubChem BioAssay (NCI)

- Tested on: UO-31 renal
- Run Description: NCI-60 one-dose screen, 48 h (100 = growth as untreated, 0 = no growth, -100 = all killed)
- Condition Info: 10 µM unless noted
This is part of a sample that, as a whole, favours compounds with a hit. Of some 83,000 tested, about 20% had one in any assay.
Endpoint: growth (%)
Enter your answer as a number in %; do not include the unit.

Q: Which growth value belongs to CCCCCCCCc1ccc(C(=O)Nc2ccc(C)cc2C(=O)O)cc1C ?
A: 78.6

Q: Which growth value belongs to COc1cc(-c2cc(-c3cccc(OCC(=O)O)c3)[nH]c(=O)c2C#N)cc(OC)c1OC ?
A: 81.8

Q: Which growth value belongs to COc1c(F)ccc(C(=O)Nc2ccc3nc(NC(=O)C4CCCN(S(=O)(=O)c5cccc(Br)c5)C4)sc3c2)c1F (stereo not drawn) ?
A: 79.3
